meta.source: PubChem BioAssay (NCI)

- System: SK-OV-3 ovarian
- Measurement notes: NCI tumour cell line growth inhibition, 48 h
Property name: TGI

Given the molecule `C1CCC2(CC1)O[C@@H]1[C@@H](O2)[C@@H](O[C@H]2O[C@@H]3COC4(CCCCC4)O[C@H]3[C@@H]3OC4(CCCCC4)O[C@@H]23)O[C@@H]2COC3(CCCCC3)O[C@@H]12` , what is its reported TGI?
> 100 µM

Now try `COC(=O)/C(=C\Nc1cccc(C)n1)S(=O)(=O)c1ccc(C)cc1` .
> 100 µM

Now try CCCCC(C#N)(OP1(=O)OC(c2ccccc2)C(C)N1C)c1ccccc1 (stereo unspecified) .
43.7 µM

Now try CCCCc1ccc(Nc2nc3c(ncn3C3CC(O)C(CN=[N+]=[N-])O3)c(=O)[nH]2)cc1 (stereo unspecified) .
> 100 µM

Now try OC(c1cc2ccccc2o1)c1cc2ccccc2s1 (stereo unspecified) .
> 10 µM

Now try Cc1ccc(N2Cc3c(ccc4ccccc34)OP2(=O)Oc2ccc(Cl)c(C)c2)cc1 (stereo unspecified) .
> 100 µM

Now try `BrCCCCCOc1ccc(-c2c3ccccc3c(-c3ccc(OCCCCCBr)cc3)c3ccccc23)cc1` .
> 100 µM

Now try `Nn1c(COc2cccc(OCc3n[nH]c(=S)n3N)c2)n[nH]c1=S` .
> 100 µM

Now try `Cc1ccc(S(=O)(=O)NC(=O)C2C(=O)CC3(CCCCC3)CC2=O)cc1` .
> 100 µM

Now try `CC[C@H](O)[C@H](C)C=C1SCCCS1` .
> 100 µM

Now try `O=C(/C=C/c1ccc(O)c(O)c1)OCCCc1ccccc1` .
58.9 µM

Now try `N/C(=N\S(=O)(=O)c1ccc(S(=O)(=O)c2ccccc2)s1)Nc1ccc(Cl)cc1` .
> 100 µM

Now try `COc1ccc(OC)c2c1CC(C(=O)O)(C(=O)O)CC2=O` .
> 100 µM

Now try `O=c1nc(/C=C/c2ccccc2Cl)cc2n1CCN2CCO` .
> 100 µM

Now try Cc1[nH]c2ccccc2c1C(=O)CC1(O)C(=O)Nc2ccccc21 (stereo unspecified) .
> 100 µM

Now try `C=C(c1ccc2nc(NC(=O)OC)[nH]c2c1)c1cccs1` .
> 45.1 µM

Now try `CCN(Cc1cccc(F)c1)c1ccc(CO)c(Cl)c1` .
36.3 µM

Now try `O=S(=O)(Nc1ccccc1Cl)c1ccc(-c2cnc(C3CC3)o2)cc1` .
> 67.7 µM

Now try `Cc1cnc2sn(-c3ccc(Oc4ccccc4)cc3)c(=O)c2c1` .
> 100 µM

Now try CCOC(=O)C1(C/C=C(/C)Cl)CCCC1=O (stereo unspecified) .
> 100 µM

Now try CCc1cc(Cc2cc(Cl)c(NC(=O)C(=O)C3NC(=O)NC3=O)c(CC)c2)cc(Cl)c1NC(=O)C(=O)C1NC(=O)NC1=O (stereo unspecified) .
> 100 µM
